target: human Fibroblast Growth Factor Receptor 1 (FGFR1), FGFR1 (gene 2260) (UniProt P11362); experiment: NVS_ENZ_hFGFR1: NovaScreen (NVS) Enzymatic Assay for human Fibroblast Growth Factor Receptor 1 (FGFR1) (AID 2283159)
Sequence (P11362 whole entry, looked up): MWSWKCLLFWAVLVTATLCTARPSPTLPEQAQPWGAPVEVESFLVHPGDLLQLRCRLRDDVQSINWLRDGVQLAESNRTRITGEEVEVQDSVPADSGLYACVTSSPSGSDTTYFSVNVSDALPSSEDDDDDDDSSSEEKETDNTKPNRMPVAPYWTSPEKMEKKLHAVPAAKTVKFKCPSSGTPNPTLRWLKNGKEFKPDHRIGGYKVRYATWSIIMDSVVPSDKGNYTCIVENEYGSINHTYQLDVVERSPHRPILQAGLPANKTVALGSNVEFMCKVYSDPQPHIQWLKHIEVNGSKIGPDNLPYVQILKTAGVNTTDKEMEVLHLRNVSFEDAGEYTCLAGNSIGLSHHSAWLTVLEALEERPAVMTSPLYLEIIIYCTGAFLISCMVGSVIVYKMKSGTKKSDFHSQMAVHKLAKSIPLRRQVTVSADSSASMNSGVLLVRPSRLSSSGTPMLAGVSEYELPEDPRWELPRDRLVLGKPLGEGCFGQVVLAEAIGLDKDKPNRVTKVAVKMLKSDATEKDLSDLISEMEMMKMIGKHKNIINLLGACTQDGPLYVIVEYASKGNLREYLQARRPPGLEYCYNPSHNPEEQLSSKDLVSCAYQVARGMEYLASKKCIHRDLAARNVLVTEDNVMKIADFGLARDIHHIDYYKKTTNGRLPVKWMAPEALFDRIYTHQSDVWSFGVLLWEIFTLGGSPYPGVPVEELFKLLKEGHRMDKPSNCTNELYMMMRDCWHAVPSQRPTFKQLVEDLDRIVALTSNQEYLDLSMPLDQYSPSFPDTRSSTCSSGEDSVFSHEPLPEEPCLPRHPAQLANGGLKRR
Inconclusive results are not listed. Active and inactive are the calls of the source. Rule for the calls: active = hit-call score of the fitted dose curve at least 0.9, where 1 is the maximum; inconclusive = response in the unintended direction; inactive = score below 0.9.
Classes used: t for active, f for inactive

| compound | system.name | class.label |
| --- | --- | --- |
| CCOC(=O)C(C)(C)Oc1ccc(Cl)cc1 | human Fibroblast Growth Factor Receptor 1 (FGFR1), FGFR1 (gene 2260) (UniProt P11362) | f |
| CCN(CC)CCOc1ccc(C(=C(Cl)c2ccccc2)c2ccccc2)cc1 | human Fibroblast Growth Factor Receptor 1 (FGFR1), FGFR1 (gene 2260) (UniProt P11362) | t |
| O=C(O)Cn1c(=O)n(Cc2ccc(Br)cc2F)c(=O)c2ccc(Cl)cc21 | human Fibroblast Growth Factor Receptor 1 (FGFR1), FGFR1 (gene 2260) (UniProt P11362) | f |
| CCOc1ccc2c(c1)C(C)=CC(C)(C)N2 | human Fibroblast Growth Factor Receptor 1 (FGFR1), FGFR1 (gene 2260) (UniProt P11362) | f |
| CCC(C)N(C)C(=O)c1cc2ccccc2c(-c2ccccc2Cl)n1 (stereo unspecified) | human Fibroblast Growth Factor Receptor 1 (FGFR1), FGFR1 (gene 2260) (UniProt P11362) | f |
| Clc1cc(Cl)c2c(c1)N=C1CCCCCN1C2 | human Fibroblast Growth Factor Receptor 1 (FGFR1), FGFR1 (gene 2260) (UniProt P11362) | f |
